The measured values listed here are drawn from ChEMBL document CHEMBL1201862.

- Tested on: SNB-19
- protocolDescription: NCI tumour cell line growth inhibition, 48 h
The source made the active and inactive calls. Rule as the data show it: active = GI50 up to about 1.1 µM and inactive = higher.
I'd be grateful if you could share measured GI50 for these entries.

input: Give GI50 for CCCCn1c2ccccc2c2ccc3c(c21)C(=O)C=CC3=O
output: > 100 µM (inactive)

input: Give GI50 for COC1CCC(CO)OO1 (stereo not given)
output: 41.4 µM (inactive)

input: Give GI50 for c1c[nH]c(CN2CCOCC2)n1
output: > 100 µM (inactive)

input: Give GI50 for CN(C)/C=N/S(=O)(=O)c1nn2c(C=O)c(-c3ccc(Cl)cc3)nc2s1
output: 14.3 µM (inactive)

input: Give GI50 for CC(=O)Oc1c(C)n(CCCl)ccc1=O
output: > 100 µM (inactive)

input: Give GI50 for COc1ccc(Cc2c(=O)[nH]nc3ccccc23)cc1
output: > 100 µM (inactive)

input: Give GI50 for CCCCN(CCCC)CCC(O)c1cc(-c2ccc(C(F)(F)F)cc2)nc(-c2ccc(C(F)(F)F)cc2)c1 (stereo not given)
output: > 100 µM (inactive)

input: Give GI50 for CC1CCC(C(=O)O)(C(Br)C(=O)O)CC1 (stereo not given)
output: > 100 µM (inactive)

input: Give GI50 for COC(=O)[C@@H]1[C@H](OC(C)=O)CCC2[C@@]3(C[C@@H](c4ccoc4)O[C@@H]3OC)[C@H](C)CC[C@]21C(=O)OC (stereo not given in full)
output: > 25 µM (inactive)

input: Give GI50 for COc1nc(C#CC2CCCCC2)nc(OC)n1
output: 16.6 µM (inactive)

input: Give GI50 for COc1ccc(NC(=S)NNC(=O)c2nsc3ccccc23)cc1
output: 26.9 µM (inactive)

input: Give GI50 for O=C1OC(C2=CC(=O)c3ccccc3C2=O)C(Cl)=C1Cl (stereo not given)
output: 56.1 µM (inactive)

input: Give GI50 for C[N+](C)(C)C1(C(=O)[O-])CC1
output: > 100 µM (inactive)

input: Give GI50 for O=C1NC2OC(CO)C(O)C(O)C2O1 (stereo not given)
output: > 100 µM (inactive)

input: Give GI50 for CN(C)CC(C)(C)C(=O)/C=C/c1ccc(/C=C/C(=O)C(C)(C)CN(C)C)cc1
output: 1.96 µM (inactive)

input: Give GI50 for CC(=O)NC(CCCN(Cc1ccccc1)C(=O)N(C)N=O)C(=O)NCc1ccccc1 (stereo not given)
output: > 100 µM (inactive)

input: Give GI50 for O=C1C(Cl)=C(Oc2ccc([N+](=O)[O-])cc2)C(=O)c2c(O)ccc(O)c21
output: > 100 µM (inactive)

input: Give GI50 for NCC(=O)C(O)C(O)C(O)CO (stereo not given)
output: > 100 µM (inactive)

input: Give GI50 for O=c1c2cc([N+](=O)[O-])ccc2n2n1Cc1ccccc1C2
output: > 100 µM (inactive)

input: Give GI50 for Cc1ccc(C=C(C(=O)O)C(=O)O)o1
output: > 100 µM (inactive)

input: Give GI50 for C/C(=N\N(C)C)C(CN(C)C)C(c1ccccc1)c1c(O)c2ccccc2oc1=O (stereo not given)
output: > 100 µM (inactive)

input: Give GI50 for CC(C)(/N=N/C(C)(C)C1=NCCN1)C1=NCCN1
output: > 100 µM (inactive)

input: Give GI50 for COc1ccc2c(C(=O)O)cc3cc(OC)c(OC)cc3c2c1
output: > 100 µM (inactive)

input: Give GI50 for COc1ccc2ccc([Se]c3ccc4ccc(OC)cc4c3)cc2c1
output: 23.3 µM (inactive)

input: Give GI50 for Cc1cc2ncc3c(=O)n(NS(=O)(=O)c4ccc(N)cc4)ccc3n2n1
output: > 100 µM (inactive)
